- Test system: GD4K-βNA
- test-summary: EP activity and kinetic study with specific substrate GD4K-βNA
- Assay type: biochemical
- applied-conditions: substrate GD4K-βna
test-readout: Km (µM)

1) Bovine (Nvg): bovine EP protease available from Novagen (protein) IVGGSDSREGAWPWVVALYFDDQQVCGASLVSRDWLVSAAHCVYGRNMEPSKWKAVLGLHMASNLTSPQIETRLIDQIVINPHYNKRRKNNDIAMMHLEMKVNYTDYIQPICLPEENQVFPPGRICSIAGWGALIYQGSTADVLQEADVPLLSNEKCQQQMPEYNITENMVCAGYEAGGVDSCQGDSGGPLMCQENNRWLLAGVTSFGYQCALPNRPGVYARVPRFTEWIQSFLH
800
